Entries annotated with measured TEAD3 YAP50-100 HTRF combined: Max % Inhibition
# targetSystem: TEAD3 YAP50-100 (Homo sapiens)
# Sequence (Q99594 173-435 limits assumed): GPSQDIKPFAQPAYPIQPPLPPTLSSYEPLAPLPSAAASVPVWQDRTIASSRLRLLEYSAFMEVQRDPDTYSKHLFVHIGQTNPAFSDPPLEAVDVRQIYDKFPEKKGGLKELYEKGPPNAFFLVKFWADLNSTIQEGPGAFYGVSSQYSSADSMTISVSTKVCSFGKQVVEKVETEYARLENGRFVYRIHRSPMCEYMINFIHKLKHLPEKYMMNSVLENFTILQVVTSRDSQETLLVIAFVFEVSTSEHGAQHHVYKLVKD
# testProtocol: TEAD3-YAP HTRF (TR-FRET) protein-protein interaction assay
# Assay type: binding
# testSettings: TEAD3, YAP peptide 50-100, HTRF
Just the number please, in %, no unit attached.

See these solved cases before continuing.
compound	measureUnit	experimentalValue
Cc1nccnc1-c1nn2c(=O)cc(-c3ccc(CC4CCCC4)cc3)[nH]c2c1C(=O)N1C[C@@H](CF)[C@H]1C (single isomer, unassigned) [Isomer A, Example 42]	%	69.5
COc1nccnc1-c1nn2c(=O)cc(-c3ccc(C4CCCCC4)cc3)[nH]c2c1C(=O)N1CC(CF)C1	%	71.5
Cc1cncc(-c2nn3c(=O)cc(-c4ccc(C5CCCCC5)cc4)[nH]c3c2C(=O)N2CC(CF)C2)n1	%	68.0
C[C@H]1[C@@H](CF)CN1C(=O)c1c(-c2cnccn2)nn2c(=O)cc(-c3ccc(C4CCCCC4)cc3)[nH]c12 (single isomer, unassigned) [Isomer A, Example 39]	%	71.0
Cc1nccnc1-c1nn2c(=O)cc(-c3ccc(CC(C)(C)C)cc3)[nH]c2c1C(=O)N1C[C@H](CF)[C@@H]1C (racemic)	%	69.5

The reported value for C[C@@H]1[C@H](CF)CN1C(=O)c1c(-c2ncccn2)nn2c(=O)cc(-c3ccc(C4CCCCC4)cc3)[nH]c12 (single isomer, unassigned) [Isomer A, Example 40] in terms of TEAD3 YAP50-100 HTRF combined: Max % Inhibition is 68.5

The reported value for CC(C)c1ccnc(-c2nn3c(=O)cc(-c4ccc(C5CCCCC5)cc4)[nH]c3c2C(=O)N2CC(CF)C2)n1 in terms of TEAD3 YAP50-100 HTRF combined: Max % Inhibition is 70.5

The reported value for C[C@@H]1[C@H](CF)CN1C(=O)c1c(C(=O)N(C)C)nn2c(=O)cc(-c3ccc(C4CCCCC4)cc3)[nH]c12 in terms of TEAD3 YAP50-100 HTRF combined: Max % Inhibition is 71.5

The reported value for O=C(c1nn2c(=O)cc(-c3ccc(C4CCCCC4)cc3)[nH]c2c1C(=O)N1CC(CF)C1)N1CCCC1 in terms of TEAD3 YAP50-100 HTRF combined: Max % Inhibition is 71.0

The reported value for Cc1nccnc1-c1nn2c(=O)cc(-c3ccc(C4CCCCC4)c(F)c3)[nH]c2c1C(=O)N1CC(CF)C1 in terms of TEAD3 YAP50-100 HTRF combined: Max % Inhibition is 69.5

---

# targetSystem: TEAD4 TAZ (amino acids 13-57) (Homo sapiens)
# testProtocol: TEAD4-TAZ HTRF (TR-FRET) protein-protein interaction assay
# testSettings: TEAD4-TAZ HTRF, TR-FRET 665 nm/615 nm; read-out: TEAD4 TAZ HTRF combined: EC50
observationType: EC50 (µM)
Just the number please, in µM, no unit attached.

> print(dat)
                       smilesrepresentation  observationtype  measureunit  experimentalvalue
1  Cc1ccnc(-c2nn3c(=O)cc(-c4ccc(C5CCCCC5)cc4)[nH]c3c2C(=O)N2CC(CF)C2)n1             EC50           µM               0.03

The reported value for Cc1nccnc1-c1nn2c(=O)cc(-c3ccc(C4CCC(F)(F)CC4)cc3)[nH]c2c1C(=O)N1CC(CF)C1 in terms of EC50 is 0.11

The reported value for CCCCCCCCCc1cc(=O)n2nc(-c3nccnc3C)c(C(=O)N3C[C@H](CF)[C@@H]3C)c2[nH]1 in terms of EC50 is 3

---

# targetSystem: TEAD2 TAZ (amino acids 13-57) (Homo sapiens)
# Sequence (Q15562 217-447): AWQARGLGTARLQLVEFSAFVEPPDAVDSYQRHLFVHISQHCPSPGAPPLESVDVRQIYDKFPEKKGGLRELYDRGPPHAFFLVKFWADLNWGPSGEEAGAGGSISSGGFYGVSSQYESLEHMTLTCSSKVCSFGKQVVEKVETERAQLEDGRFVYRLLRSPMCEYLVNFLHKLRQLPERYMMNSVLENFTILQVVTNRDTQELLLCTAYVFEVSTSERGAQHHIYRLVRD
# testProtocol: TEAD2-TAZ HTRF (TR-FRET) protein-protein interaction assay
# Format: binding
# testSettings: TEAD2, TAZ peptide, HTRF
# Experimental: Purified His-tagged TEAD protein (YAP Binding Domain, amino acids 217-447) is pre-incubated with Europium labelled anti-His antibody tracer (Perkin Elmer Cat #AD0110). […] After 60 minutes, the plate is read on a plate reader using TR-FRET mode with wavelengths of 665 nm/615 nm. […] The potency of compounds as YAP:TEAD or TAZ:TEAD protein-protein interaction (PPi) inhibitors is determined by an IC50 or EC50 value generated using a non-linear four parameter curve fit.
Class Met: TEAD2 TAZ HTRF combined: Max % Inhibition at least 70%. Class Not met: TEAD2 TAZ HTRF combined: Max % Inhibition below 70%.

The following molecules have reported results that may help.
> print(dat)
                       smilesrepresentation      cat
1  O=C(c1c(-c2cnccn2)nn2c(=O)cc(-c3ccc(CC4CCCC4)cc3)[nH]c12)N1CC(CF)C1  Not met
2  Cc1nccnc1-c1nn2c(=O)cc(-c3ccc(C4CCCCC4)c(F)c3)[nH]c2c1C(=O)N1CC(CF)C1  Not met
3  O=C(c1nn2c(=O)cc(-c3ccc(C4CCCCC4)cc3)[nH]c2c1C(=O)N1CC(CF)C1)N1CCCC1      Met
4  Cc1nccnc1-c1nn2c(=O)cc(-c3ccc(C(F)(F)C4CCCC4)cc3)[nH]c2c1C(=O)N1CC(CF)C1  Not met

Query string: Decide: TEAD2 TAZ HTRF combined: Max % Inhibition of COc1ccnc(-c2nn3c(=O)cc(-c4ccc(C5CCCCC5)cc4)[nH]c3c2C(=O)N2CC(CF)C2)n1 >= 70%?
Result string: Not met

---

# targetSystem: TEAD4 YAP50-100 (Homo sapiens, UniProt Q15561)
# Sequence (Q15561 217-434 limits assumed): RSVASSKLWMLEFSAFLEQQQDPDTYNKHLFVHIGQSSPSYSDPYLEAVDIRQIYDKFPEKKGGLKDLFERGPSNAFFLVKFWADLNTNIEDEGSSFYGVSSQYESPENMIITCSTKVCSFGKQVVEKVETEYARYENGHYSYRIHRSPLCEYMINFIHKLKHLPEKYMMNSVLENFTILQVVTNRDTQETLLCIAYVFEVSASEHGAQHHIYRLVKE
# testProtocol: TEAD4-YAP HTRF (TR-FRET) protein-protein interaction assay
# Type: binding
# testSettings: TEAD4, YAP peptide 50-100, HTRF
observationType: TEAD4 YAP50-100 HTRF combined: Max % Inhibition

See these solved cases before continuing.
compound	experimentalValue
Cc1nccnc1-c1nn2c(=O)cc(-c3ccc(C4CCCCC4)cc3)[nH]c2c1C(=O)N1C[C@H](CF)[C@@H]1C (single isomer, unassigned) [Isomer B, Example 41]	57.2%
O=C(c1nn2c(=O)cc(-c3ccc(C4CCCCC4)cc3)[nH]c2c1C(=O)N1CC(CF)C1)N1CCCC1 [Compound 36]	48.0%
Cc1nccnc1-c1nn2c(=O)cc(-c3ccc(CC4CCCC4)cc3)[nH]c2c1C(=O)N1C[C@H](CF)[C@@H]1C (single isomer, unassigned) [Isomer B, Example 42]	52.5%

The reported value for N#Cc1nccnc1-c1nn2c(=O)cc(-c3ccc(C4CCCCC4)cc3)[nH]c2c1C(=O)N1CC(CF)C1 [Compound 8] in terms of TEAD4 YAP50-100 HTRF combined: Max % Inhibition is 45.5%

The reported value for Cc1ccnc(-c2nn3c(=O)cc(-c4ccc(C5CCCCC5)cc4)[nH]c3c2C(=O)N2CC(CF)C2)c1C [Compound 29] in terms of TEAD4 YAP50-100 HTRF combined: Max % Inhibition is 54.0%

---

Entries annotated with measured TEAD2 YAP50-100 HTRF combined: Max % Inhibition
# targetSystem: TEAD2 YAP50-100 (Homo sapiens, UniProt Q15562)
# testProtocol: TEAD2-YAP HTRF (TR-FRET) protein-protein interaction assay
# Type: binding
# testSettings: TEAD2, YAP peptide 50-100, HTRF
Just the number please, in %, no unit attached.

The reported value for Cc1nccnc1-c1nn2c(=O)cc(-c3ccc(CC4CCCC4)cc3)[nH]c2c1C(=O)N1C[C@@H](CF)[C@H]1C (single isomer, unassigned) [Isomer A, Example 42] in terms of TEAD2 YAP50-100 HTRF combined: Max % Inhibition is 45.0

The reported value for CC(C)(C)c1ccc(COc2cc(=O)n3nc(-c4ncccn4)c(C(=O)N4CC(CF)C4)c3[nH]2)cc1 in terms of TEAD2 YAP50-100 HTRF combined: Max % Inhibition is 59.0

The reported value for CN(C)C(=O)c1nn2c(=O)cc(-c3ccc(C4CCCCC4)cc3)[nH]c2c1C(=O)N1CC(CF)C1 in terms of TEAD2 YAP50-100 HTRF combined: Max % Inhibition is 74.4

The reported value for Cc1ccnc(-c2nn3c(=O)cc(-c4ccc(C5CCCCC5)cc4)[nH]c3c2C(=O)N2CC(CF)C2)n1 in terms of TEAD2 YAP50-100 HTRF combined: Max % Inhibition is 62.0

The reported value for O=C(c1c(-c2cccnc2)nn2c(=O)cc(-c3ccc(C4CCCCC4)cc3)[nH]c12)N1CC(CF)C1 in terms of TEAD2 YAP50-100 HTRF combined: Max % Inhibition is 54.5
